System: gastric mucosa
measurementSetup: both, albino, mouse, in vivo, po, 10 mg/kg, 3 days
parameterMeasured: Average of Ulcer Number
The response must contain the number and no unit.

Here is how some compounds turned out for Average of Ulcer Number.
1) COc1ccc2c(c1)c(CC(=O)O)c(C)n2C(=O)c1ccc(Cl)cc1 [Indo, Indomethacin, reference compound]; 2
2) Cc1ccc(-n2cc(COC(=O)C(C)c3ccc(CC(C)C)cc3)nn2)cc1 (stereo not shown) [Compound 5d]; 0

Challenge: // query Average of Ulcer Number value for entry CC(C)Cc1ccc(C(C)C(=O)OCc2cn(-c3ccc(Cl)cc3)nn2)cc1 (stereo not shown) [Compound 5b]
Response given: 0

Challenge: Return reported Average of Ulcer Number; argument: CC(C)Cc1ccc(C(C)C(=O)OCc2cn(-c3ccccc3Cl)nn2)cc1 (stereo not shown) [Compound 5a]
Response given: 0

====

We begin with a simple list: items and their reported Potency.
Test system: hot plate latency
protocolText: hot plate assay (central analgesic)
Type: in vivo, mice
measurementSetup: at 120 min compared to indomethacin
Reply with just the number.

Challenge: // returns reported Potency for input COc1ccccc1-n1cc(COC(=O)C(C)c2ccc(CC(C)C)cc2)nn1 (stereo not drawn)
Response given: 49.6

Challenge: Quick one: Potency of CC(C)Cc1ccc(C(C)C(=O)OCc2cn(-c3ccc([N+](=O)[O-])cc3)nn2)cc1 (stereo not drawn) ?
Response given: 49.7

Challenge: // lookup Potency for COc1ccc2c(c1)c(CC(=O)OCc1cn(-c3ccccc3OC)nn1)c(C)n2C(=O)c1ccc(Cl)cc1
Response given: 51.2

====

System: acetic acid-induced abdominal writhing
protocolText: acetic acid-induced abdominal writhing assay (peripheral analgesic)
Assay type: in vivo, mice
measurementSetup: % inhibition/protection compared to indomethacin
Known Potency of a selection of compounds
The reply should contain only the number, in %.

Some solved cases for reference:
1. COc1ccccc1-n1cc(COC(=O)C(C)c2ccc(CC(C)C)cc2)nn1 (stereo not drawn); 88.2
2. COc1ccc2c(c1)c(CC(=O)O)c(C)n2C(=O)c1ccc(Cl)cc1 [Indo, Indomethacin, reference compound]; 100.0

Challenge: What measured Potency goes with COc1ccc(-n2cc(COC(=O)C(C)c3ccc(CC(C)C)cc3)nn2)cc1 (stereo not drawn) ?
Response given: 111.4
